Consider the following variants; for each one, report its abundance fitness.
B1: Lysine-specific demethylase 2B, residues 656 to 722; numbered along this chain, Q8NHM5 (parent)
chain: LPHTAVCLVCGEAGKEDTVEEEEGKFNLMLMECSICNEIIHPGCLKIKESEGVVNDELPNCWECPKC

Variants of: B1
EXPERIMENT_SUMMARY: abundance fitness (aPCA) (normalised: wild type 0, dead -1); higher = more abundant; growth selection in yeast, the domain comes from the species named
MEASUREMENT_CONTEXT: Homo sapiens
Write no unit; give the number alone.

I have this variant here, LPHTAVCLVCGEANKEDTVEEEEGKFNLMLMECSICNEIIHPGCLKIKESEGVVNDELPNCWECPKC , and I need its recorded abundance fitness.
-0.003

Give the measured abundance fitness of LPHTAVCLVCGEAGKEDTVEEEEGKFQLMLMECSICNEIIHPGCLKIKESEGVVNDELPNCWECPKC .
-0.206

Recorded abundance fitness of LPHTAVCLVCGEAGKEDTVEEEEGKFNLMLMECSICNEIIHPGCLKIKESGGVVNDELPNCWECPKC , please.
-0.197
